Test system: Saccharomyces cerevisiae
Assay: protein stability index of tFT-peptide fusion (C-terminal peptide) (PSI (0-1 scale)); higher = more stable (slower turnover);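 further: PSI is a weighted mean of sequencing reads over stability bins, variants kept only with over 10 reads, mCherry proximal and sfGFP distal, peptide attached via GGGS linker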
Conditions: genetic background: wild type; temperature: 30 C
Decision: protein stability index >= 0.7 yields TRUE, all other cases yield FALSE.

Solved cases (5 shown):
# residue-codes, group-label
records = [
    ("SRVIFSQSLSVP", "FALSE"),
    ("LCLFGGLVAFWC", "FALSE"),
    ("LVCLVFVRSSLV", "FALSE"),
    ("GTGMMGFFWIVA", "FALSE"),
    ("DVTKLVLSIDSC", "TRUE"),
]

Test whether the sequence PPPYHLTPPPPF records protein stability index of 0.7 or higher. FALSE

Would you say GGELRPKGVRGV shows protein stability index at minimum 0.7? FALSE

# bool: protein stability index of DQVDGLFTCSAR >= 0.7 TRUE

Reported protein stability index reaches at least 0.7 for PYTHDRTTSPVF ? TRUE

* * *

Tested on: Saccharomyces cerevisiae
Assay: protein stability index of tFT-peptide fusion (C-terminal peptide) (PSI (0-1 scale)); higher = more stable (slower turnover)
Settings: genetic background: wild type; temperature: 30 C
Task for the reader: assign each of the following sequences its reported protein stability index.
One number for each entry.

Known results for sequences:
# residue-codes, protein stability index
measured = [
    ("CGVWVVVASAYR", 0.377),
    ("SPPPPTPPPPPA", 0.718),
    ("LDGLNLVRVVGV", 0.674),
]

Okay, here is my list. What is protein stability index for each of these?
1. RMRTGTKCLSAG
2. PPPPPPALPEYQ
3. TYLCLLVRDNRG

1: 0.705; 2: 0.708; 3: 0.706

Batch request: protein stability index for each of the following sequences.
1. PHPPLPPPPPPP
2. PFPPSAHPPPPH
3. SSLLPLLAQLVG
4. SQLERSNHGWVR
5. FVSVAGFIVVVV

0.702
0.795
0.406
0.651
0.408

Count: 6. Required value per item: protein stability index.
1. KTNKDKKRTKTV
2. PPPTRPPPPPSL
3. FFRFNCVFWLFL
4. PRLPPPSPPPLP
5. SFPPLRPSPPLL
6. PPPGSPLPPPRA

1: 0.714; 2: 0.704; 3: 0.313; 4: 0.735; 5: 0.667; 6: 0.702

* * *

Test system: Saccharomyces cerevisiae
Assay: protein stability index of tFT-peptide fusion (C-terminal peptide) (PSI (0-1 scale)); higher = more stable (slower turnover)
Conditions: genetic background: cdc34-1; temperature: 37 C
If the reported protein stability index equals or exceeds 0.6, assign Satisfied. If not, assign Not satisfied.

Example entries begin here.
# residue-codes, group-label
records = [
    ("WVVWWFACVFGV", "Not satisfied"),
    ("CWLFVWVRVISL", "Not satisfied"),
]

Exam item: decide whether the reported protein stability index for PFLSLPFLFPSS is at least 0.6. Satisfied

Reported protein stability index at or above 0.6? FSLLFVRFCFFL Not satisfied

* * *

Tested on: Saccharomyces cerevisiae
Experiment: protein stability index of tFT-peptide fusion (C-terminal peptide) (PSI (0-1 scale)); higher = more stable (slower turnover)
Settings: genetic background: wild type; temperature: 30 C
assay-endpoint: protein stability index
Answers are plain numbers.

# example entries with known answers
# residue-codes, tgt, protein stability index
data = [
    ("VPFVGLGLKVRV", "Saccharomyces cerevisiae", 0.624),
    ("VFFLFAVCSVLV", "Saccharomyces cerevisiae", 0.152),
    ("AKYPLTRCLFGS", "Saccharomyces cerevisiae", 0.705),
    ("PVPPFDGLVPAL", "Saccharomyces cerevisiae", 0.728),
    ("PLPPLPPPLSPP", "Saccharomyces cerevisiae", 0.732),
    ("ACLCLPGVRVGG", "Saccharomyces cerevisiae", 0.625),
    ("GMTYEKIKNVIE", "Saccharomyces cerevisiae", 0.651),
    ("RLFASNPALSNL", "Saccharomyces cerevisiae", 0.709),
]

# batch: return protein stability index for each of the 4 sequences below
1. KKEKEKRRDRWR
2. DGVIVACWCRRS
3. VFCTFVGPRSDV
4. SSLSPGFPLPSS

1: 0.661; 2: 0.66; 3: 0.775; 4: 0.699

* * *

Tested on: Saccharomyces cerevisiae
Test: protein stability index of tFT-peptide fusion (C-terminal peptide) (PSI (0-1 scale)); higher = more stable (slower turnover)
Conditions: genetic background: das1 deletion; temperature: 30 C
Exercise: state measured protein stability index for each of the sequences provided.
Numbers only.

These solved cases illustrate the format of a correct answer.
# residue-codes, protein stability index
data = [
    ("LLTAARAQLFAV", 0.578),
    ("TLCFRLSWVLLV", 0.144),
    ("FSVLVVYTRLFQ", 0.332),
]

For every record below, what is its protein stability index?
1. SGMLVYFGTVCY
2. LFFSFLFLATRC

1. 0.341
2. 0.254

State the recorded protein stability index for every item in the following list.
1. LVFGFSLILRVG
2. SASPFYLPPPPV
3. SVFRFLFLALLV
4. LNSSVLRLRFFV
5. WLVIWPRKLSTV
6. CHFLLPFLFTCA
7. LSAVISLRIQLS
8. LIAPSACNLFLF

0.272
0.679
0.282
0.607
0.477
0.244
0.518
0.682

State recorded protein stability index for all listed sequences.
1. PCTFYLFWMFFV
2. DCLSFVLFLFLC
3. IYPPVSVTNLLV
4. WRVVVSCALHVC
5. VLGRCWWIVSDL
6. NENQIKVIMLLV
7. AYACSILRCKSS

[0.43, 0.239, 0.646, 0.169, 0.661, 0.344, 0.636]

List the reported protein stability index of each sequence below.
1. LCWASLLIVYLP
2. YIRINNIYWKKS
3. NDKGKKTKIKIV

[0.311, 0.669, 0.64]

Quick request: protein stability index for each listed item, please.
1. AFVVYSGSHGLV
2. PPLPPPPPHPPP

0.659
0.477

Would you be so kind as to report protein stability index for each listed record?
1. RCIFYHSPVLCL
2. SFWLFSSIGVCF

1: 0.399; 2: 0.461

For every listed record, write down its protein stability index.
1. YVQTKKTRYVLV
2. PPSRVSIRLLIR
3. VVGLVSIVQVIM
4. AFPSSVILMVFS
5. LLLFSFAALANF
6. FAIPFVLFFRVT
7. YVSIWSPILWLA

1: 0.383; 2: 0.362; 3: 0.308; 4: 0.29; 5: 0.398; 6: 0.257; 7: 0.293

List reported protein stability index for each of these sequences:
1. FSFPAFTFIVSI
2. VFSRVLSVLLSA

[0.336, 0.405]

* * *

Tested on: Saccharomyces cerevisiae
Assay: protein stability index of tFT-peptide fusion (C-terminal peptide) (PSI (0-1 scale)); higher = more stable (slower turnover)
Conditions: genetic background: wild type; temperature: 30 C
assay-endpoint: protein stability index
Give bare numbers.

Here is how some sequences turned out for protein stability index.
# residue-codes, tgt, recorded-measurement
data = [
    ("SSPLTPAPLCSS", "Saccharomyces cerevisiae", 0.702),
    ("SFWWCSARSFQG", "Saccharomyces cerevisiae", 0.715),
    ("PSCCPPATLPPP", "Saccharomyces cerevisiae", 0.687),
    ("INKKKQRIRGKN", "Saccharomyces cerevisiae", 0.69),
    ("KVAGRLAATRSR", "Saccharomyces cerevisiae", 0.716),
    ("SNRQDHACGGSA", "Saccharomyces cerevisiae", 0.687),
]

Dear colleague, could you send me protein stability index for each of the items below? Thanks.
1. GRGGPSGAKAHR
2. KKKNQLSKVTKR
3. IATDGARCACDP
4. DPSMSNRDRRLP
5. CVGPGGACVRSG

0.684
0.702
0.688
0.708
0.689

// batch mode: one protein stability index value per listed entry
1. AALRLVEDKSTW
2. LWLSAPDRREPF

[0.71, 0.684]

* * *

Test system: Saccharomyces cerevisiae
Assay: protein stability index of tFT-peptide fusion (C-terminal peptide) (PSI (0-1 scale)); higher = more stable (slower turnover)
Details: genetic background: wild type; temperature: 30 C
assay-endpoint: protein stability index
Give bare numbers.

Here are 5 sequences together with their reported answers.
# residue-codes, assay-endpoint, recorded-measurement
records = [
    ("KKSERRGQKDYE", "protein stability index", 0.696),
    ("WVSHMHLGSFVH", "protein stability index", 0.701),
    ("CVGCVVGAGVTS", "protein stability index", 0.684),
    ("SNTSRIQGGWLK", "protein stability index", 0.699),
    ("RWGVRFWVGDSV", "protein stability index", 0.687),
]

Next sequence, please.
Request - read-out protein stability index | tested on Saccharomyces cerevisiae | sequence NMIKNNKWDINR 0.7

Recorded values, source the supplement of paper PMC10724198.
